tested on: Aspergillus fumigatus; assay: Antifungal activity against Aspergillus fumigatus after 72 hrs by broth microdilution method; assay type: functional
Value Kind: MIC

>>> assay_value("OC(Cn1cncn1)(Cn1cncn1)c1ccc(F)cc1F")
"2 µg/mL"
>>> assay_value("O=C1C(Nc2ccccc2)=C(Sc2cccc3ccccc23)C(=O)c2ccccc21")
"> 50 µg/mL"
>>> assay_value("O=C1C(Cl)=C(Nc2ccc(O)cc2)C(=O)c2ccccc21")
"3.12 µg/mL"
>>> assay_value("Cn1c(N)c2ccccc2nc2c(=O)c3ccccc3c(=O)c1=2")
"25 µg/mL"
